- SUBJECT OF TEST: T1, human FOLR1 recombinant protein (extracellular domain of human folate receptor alpha) (human, UniProt P15328 25-233)
- T1 construct: Bought recombinant protein (Sino Biological); also called hFOLR1; FR-alpha
- PROTOCOL NOTES: SPR dual injection on immobilized human FOLR1, 250 nM; competitor (1st VHH, saturating) A4; by the legend the value is of the 2nd VHH
Reported loss in response level of VHH 2 relative to VHH 2 injected alone is given for each of the following binders.
Respond numerically; units are % and should not be typed.

{"BINDER": "His6-tagged variant of VHH A3 (VHH, Purified, unlabelled; also called A3 His6-tag) VHH: DVQLVESGGGLVQAGGSLRLSCGVSGNMFSMNLMGWYRQPPGKERDWVAVITKDGSTNYADSVKGRFTISRDNAKNTVSLQMNSLKPEDTAVYYCNVQDGSGWIRAWGWDWGQGTQVTVSS", "RECORDED MEASUREMENT": -97}
{"BINDER": "His6-tagged variant of VHH A5 (VHH, Purified, unlabelled; also called A5 His6-tag) VHH: DVQLVESGGGLVQAGGSLRLSCGVSGNIFSMNLMGWYRQPPGKEREWVALITKDGSTNYEDSVKGRFTISRDNAKNTVSLQMNSLKPEDTAVYYCNAQDGSGWIRAWGWDWGQGTQVTVSS", "RECORDED MEASUREMENT": -98}
{"BINDER": "His6-tagged variant of VHH A2 (VHH, Purified, unlabelled; also called A2 His6-tag) VHH: DVQLVESGGGLVQAGGSLRLSCAADEMKFSNYDLAWYRRAPGKQRELAAIITSGGSTNYPDSVKGRFTISRDNAKNTVYLEMNSLKPEDTAVYYCNALRPWPQFSDYWGQGTQVTVSS", "RECORDED MEASUREMENT": -96}

Here is another binder to look at.
Prompt: Could you tell me which loss in response level of VHH 2 relative to VHH 2 injected alone is on file for His6-tagged variant of VHH A1 (VHH, Purified, unlabelled; also called A1 His6-tag) VHH: DVQLVESGGGLVQPGGSLRLSCAASESIFSRNHMSWYRQAPGKQRELAAIITSDGNTNYPDSVKGRFTISRDNAKNTVYLQMNSLKPEDTAVYYCNTFGRSVAGFYDYWGQGTQVTVSS ?
Completion: -98
